targetOrSystem: T1, IspG-His (E. coli BL21(DE3), UniProt P62620 1-372)
T1 construct: ispG amplified from the E. coli BL21(DE3) genome; also called His-tagged ispG; GcpE; source: E. coli BL21(DE3); coexpressed with YdfD constructs, in lysate; and purified (Ni-NTA, Superdex 200)
T1 sequence (looked up): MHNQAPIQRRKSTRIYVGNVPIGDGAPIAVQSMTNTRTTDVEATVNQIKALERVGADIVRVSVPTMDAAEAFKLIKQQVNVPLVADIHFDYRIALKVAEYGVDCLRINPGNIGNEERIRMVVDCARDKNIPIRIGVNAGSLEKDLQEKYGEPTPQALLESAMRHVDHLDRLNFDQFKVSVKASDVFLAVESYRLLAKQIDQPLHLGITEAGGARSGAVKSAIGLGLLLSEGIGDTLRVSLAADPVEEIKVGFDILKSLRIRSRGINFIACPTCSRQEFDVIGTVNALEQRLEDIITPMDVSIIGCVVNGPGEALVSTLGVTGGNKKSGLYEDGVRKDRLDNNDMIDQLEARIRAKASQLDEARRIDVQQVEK
protocolSummary: ITC; IspG (1.1 mM) injected into YdfD in the cell, 2 μL injections at 120 s spacing, 25 °C, 20 mM Tris, 150 mM NaCl, pH 8.0; one-site binding fit
recordedConditions: both partners purified
measuredMetric: Kd (µM)
Use µM as the unit, but write only the number.

Ask: Assign Kd to the following record: YdfD (MBP tag cleaved) (natural protein, E. coli BL21(DE3), UniProt P29010 1-63, looked up, YdfD, lysis protein of the Qin cryptic prophage, 63 amino acids; ydfD amplified from the E. coli BL21(DE3) genome; No truncation is told for this construct; source: E. coli BL21(DE3), purified as MBP-YdfD (amylose resin), MBP cleaved by PreScission protease; not shown: MBP, N-terminal, cleaved) MNSAFVLVLTVFLVSGEPVDIAVSVHRTMQECMTAATEQKIPGNCYPVDKVIHQDNIEIPAGL
Result: 18.4
